test system: 439559-082-T-J2-PDC spheroids viability; experiment: Anticancer human tumor 439559-082-T-J2-PDC patient-derived colon adenocarcinoma cell line growth inhibition [GQUAD]; conditions: second compound 0.316 µM; first compound 10 µM; stronger effect = lower value;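 note: spheroids exposed to the agents for 7 days before readout; percent of luminescence signal in DMSO vehicle wells taken as 100% viability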
viability, T/C for assorted molecules
Could you give me the number in %? Just the number is fine.

# count of solved cases: 8
CC(=O)O[C@H]1C(=O)[C@@]2(C)[C@H]([C@H](OC(=O)c3ccccc3)[C@]3(O)C[C@H](OC(=O)[C@H](O)[C@@H](NC(=O)c4ccccc4)c4ccccc4)C(C)=C1C3(C)C)[C@]1(OC(C)=O)CO[C@@H]1C[C@@H]2O + Cc1cnc(CNC(=O)c2c(=O)c3ccc(N4CCCN(C)CC4)nc3n3c2sc2ccccc23)cn1
39.2
O=C(NO)c1cnc(N2CCN(S(=O)(=O)c3ccc4ccccc4c3)CC2)nc1 + CN(C)c1ccc(Nc2c3ccc(NC(=O)CCN4CCCC4)cc3nc3cc(NC(=O)CCN4CCCC4)ccc23)cc1
0.13
CC(=O)O[C@H]1C(=O)[C@@]2(C)[C@H]([C@H](OC(=O)c3ccccc3)[C@]3(O)C[C@H](OC(=O)[C@H](O)[C@@H](NC(=O)c4ccccc4)c4ccccc4)C(C)=C1C3(C)C)[C@]1(OC(C)=O)CO[C@@H]1C[C@@H]2O + Cc1[nH]c2ccc(F)cc2c1-c1nc2c3cccnc3c3ncccc3c2[nH]1
0.29
CCCS(=O)(=O)Nc1ccc(F)c(C(=O)c2c[nH]c3ncc(-c4ccc(Cl)cc4)cc23)c1F + Cc1cnc(CNC(=O)c2c(=O)c3ccc(N4CCCN(C)CC4)nc3n3c2sc2ccccc23)cn1
54
COc1ncnc(C2CC2)c1-c1ncc2cnn(Cc3ccc(-c4nc(C(F)(F)F)cn4C(C)C)cc3)c2n1 + CN(C)c1ccc(Nc2c3ccc(NC(=O)CCN4CCCC4)cc3nc3cc(NC(=O)CCN4CCCC4)ccc23)cc1
102
O=C(c1cc(Cc2n[nH]c(=O)c3ccccc23)ccc1F)N1CCN(C(=O)C2CC2)CC1 + CN(C)c1ccc(Nc2c3ccc(NC(=O)CCN4CCCC4)cc3nc3cc(NC(=O)CCN4CCCC4)ccc23)cc1
90.8
C=CC(=O)N1CCN(c2nc(=O)n(-c3c(C)ccnc3C(C)C)c3nc(-c4c(O)cccc4F)c(F)cc23)C(C)C1 (stereo not drawn) + Cc1cnc(CNC(=O)c2c(=O)c3ccc(N4CCCN(C)CC4)nc3n3c2sc2ccccc23)cn1
93
C=CCn1c(=O)c2cnc(Nc3ccc(N4CCN(C)CC4)cc3)nc2n1-c1cccc(C(C)(C)O)n1 + Cc1cnc(CNC(=O)c2c(=O)c3ccc(N4CCCN(C)CC4)nc3n3c2sc2ccccc23)cn1
24

(Q) For Cc1cccc(N(C)C(=O)C2C(O)CCN2c2nc(C)cc(C(F)(F)F)c2C#N)c1 (stereo not drawn) + CN(C)c1ccc(Nc2c3ccc(NC(=O)CCN4CCCC4)cc3nc3cc(NC(=O)CCN4CCCC4)ccc23)cc1 , what is its reported viability, T/C?
(A) 94.3

(Q) Next molecule up: C#Cc1c(F)ccc2cc(O)cc(-c3ncc4c(N5CC6CCC(C5)N6)nc(OCC56CCCN5CC(F)C6)nc4c3F)c12 (stereo not drawn) + CN(C)c1ccc(Nc2c3ccc(NC(=O)CCN4CCCC4)cc3nc3cc(NC(=O)CCN4CCCC4)ccc23)cc1
(A) 47.6

(Q) // same read-out, input: C=CCn1c(=O)c2cnc(Nc3ccc(N4CCN(C)CC4)cc3)nc2n1-c1cccc(C(C)(C)O)n1 + CN(C)c1ccc(Nc2c3ccc(NC(=O)CCN4CCCC4)cc3nc3cc(NC(=O)CCN4CCCC4)ccc23)cc1
(A) 24.5

(Q) Same for CC(C)n1c(=O)n(C)c2cnc3cc(F)c(-c4ccc(OCCCN5CCCCC5)nc4)cc3c21 + CN(C)c1ccc(Nc2c3ccc(NC(=O)CCN4CCCC4)cc3nc3cc(NC(=O)CCN4CCCC4)ccc23)cc1
(A) 100

(Q) Same read-out for COc1ccc([C@@H](O)c2cc(-c3ncnc4cc(N5CCOCC5)ccc34)c(F)cc2Cl)nn1 + Cc1cnc(CNC(=O)c2c(=O)c3ccc(N4CCCN(C)CC4)nc3n3c2sc2ccccc23)cn1 ?
(A) 50.3
